From: paper PMC9276671

procedure.text: Plasma pharmacokinetics of ALM201 in Phase I patients (validated LC-MS/MS, Phoenix WinNonlin)
measurement.conditions: human, plasma, sc, 300 mg, Tmax, median, 300 mg SC, day 18 cycle 4, n = 1; plasma LC-MS/MS
No end group written: not given here.
metric.name: Tmax (h)
Give bare numbers, in h.

Form field: reported Tmax of IRQQPRDPPTETLELEVSPDPAS [ALM201]
1.12

====

procedure.text: Plasma pharmacokinetics of ALM201 in Phase I patients (validated LC-MS/MS, Phoenix WinNonlin)
measurement.conditions: human, plasma, sc, 100 mg, Plasma concentration, geometric mean (CV%), 100 mg SC, day 18 cycle 2, 0.5 h after dosing, n = 1; LC-MS/MS
No end group written: not given here.
metric.name: level at 0.5 h
In your response, the unit should come after the numeric value.

Form field: reported level at 0.5 h of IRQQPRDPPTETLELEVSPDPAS [ALM201]
1060 ng/mL
